Test system: BMSC (primary human bone marrow mesenchymal stromal cells)
Assay: absolute EC50 for viability; higher = less sensitive

| mol | assayed system | absolute EC50 for viability |
| --- | --- | --- |
| NS(=O)(=O)OC[C@@H]1C[C@@H](n2ccc3c(N[C@H]4CCc5ccccc54)ncnc32)C[C@@H]1O | BMSC (primary human bone marrow mesenchymal stromal cells) | > 10 µM |
| O=C(Nc1ccc2[nH]nc(-c3ccncc3)c2c1)[C@@H]1CCN(CC(=O)N2CCN(c3ccc(-c4ncccn4)cc3)CC2)C1 | BMSC (primary human bone marrow mesenchymal stromal cells) | > 10 µM |
| O=C(NCc1ccncc1)C12CC3CC(C1)CC(c1ccc(Cl)cc1)(C3)C2 | BMSC (primary human bone marrow mesenchymal stromal cells) | > 50 µM |
| C=C1C[C@@H]2[C@H](CC[C@]3(C)C(=O)CC[C@@H]23)[C@@]2(C)C=CC(=O)C=C12 | BMSC (primary human bone marrow mesenchymal stromal cells) | > 10 µM |
| Cc1cc(OCc2nnc(SC3CCCC3)n2-c2cccnc2)ccc1-c1ccc(S(C)(=O)=O)cc1 | BMSC (primary human bone marrow mesenchymal stromal cells) | 5.4 µM |
| Cc1ccc(F)c(NC(=O)Nc2ccc(-c3cccc4[nH]nc(N)c34)cc2)c1 | BMSC (primary human bone marrow mesenchymal stromal cells) | > 1 µM |
| NC(=O)N1CCC(CC(=O)N2CCC([C@H]3c4ncc(Br)cc4CCc4cc(Cl)cc(Br)c43)CC2)CC1 | BMSC (primary human bone marrow mesenchymal stromal cells) | > 100 µM |
| Cn1ncnc1[C@H]1c2n[nH]c(=O)c3cc(F)cc(c23)N[C@@H]1c1ccc(F)cc1 | BMSC (primary human bone marrow mesenchymal stromal cells) | > 1 µM |
| Cn1ncc(Cl)c1-c1cc(C(=O)N[C@H](CN)Cc2ccc(F)c(F)c2)oc1Cl | BMSC (primary human bone marrow mesenchymal stromal cells) | > 10 µM |
| Nc1nc(Cl)nc2c1ncn2[C@@H]1O[C@H](CO)[C@@H](O)[C@@H]1F | BMSC (primary human bone marrow mesenchymal stromal cells) | 0.739 µM |
| CN(C)C(=N)NC(=N)N | BMSC (primary human bone marrow mesenchymal stromal cells) | > 100 µM |
| O=C(NC[C@H](O)CN1CCc2ccccc2C1)c1cc(NC2COC2)ncn1 | BMSC (primary human bone marrow mesenchymal stromal cells) | > 10 µM |
| COc1cc2/c(=N/c3ccc(Br)cc3F)nc[nH]c2cc1OCC1CCN(C)CC1 | BMSC (primary human bone marrow mesenchymal stromal cells) | > 1 µM |
| CNc1nc(Nc2cn(C(C)(C)C#N)nc2C)ncc1C(F)(F)F | BMSC (primary human bone marrow mesenchymal stromal cells) | > 1 µM |
| N#Cc1ccc(C(c2ccc(C#N)cc2)n2cncn2)cc1 | BMSC (primary human bone marrow mesenchymal stromal cells) | > 10 µM |
| CNc1nc(-c2ccc3c(N)n[nH]c3c2)cc(N2C[C@@H](C(=O)NC3CCCCC3)CC[C@H]2C)n1 | BMSC (primary human bone marrow mesenchymal stromal cells) | > 10 µM |
| COc1cc2ncnc(Nc3ccc(F)c(Cl)c3)c2cc1OCCCN1CCOCC1 | BMSC (primary human bone marrow mesenchymal stromal cells) | > 10 µM |
| Cc1nc(-c2cn3c(n2)-c2ccc(-c4cnn(C(C)(C)C(N)=O)c4)cc2OCC3)n(C(C)C)n1 | BMSC (primary human bone marrow mesenchymal stromal cells) | > 1 µM |
| CCOC(=O)CCNc1cc(N2CCc3ccccc3CC2)nc(-c2ccccn2)n1 | BMSC (primary human bone marrow mesenchymal stromal cells) | 73 µM |
| CNC(=O)c1nn(C)c2c1C(C)(C)Cc1cnc(Nc3ccc(N4CCN(C)CC4)cc3)nc1-2 | BMSC (primary human bone marrow mesenchymal stromal cells) | > 10 µM |
| Cc1ccc(NC(=O)c2ccc(CN3CCN(C)CC3)cc2)cc1Nc1nc(-c2cccnc2)cs1 | BMSC (primary human bone marrow mesenchymal stromal cells) | 2.86 µM |
| CCCC(CCC)C(=O)O | BMSC (primary human bone marrow mesenchymal stromal cells) | > 1000 µM |
| COC[C@H](NC(=O)c1cnc(C)s1)C(=O)N[C@@H](COC)C(=O)N[C@@H](Cc1ccccc1)C(=O)[C@@]1(C)CO1 | BMSC (primary human bone marrow mesenchymal stromal cells) | 0.304 µM |
| Cc1cc(Nc2cc(N3CCN(C)CC3)nc(Sc3ccc(NC(=O)C4CC4)cc3)n2)n[nH]1 | BMSC (primary human bone marrow mesenchymal stromal cells) | 4.45 µM |
| Cc1cc(Nc2ncc(Cl)c(Nc3ccccc3S(=O)(=O)C(C)C)n2)c(OC(C)C)cc1C1CCNCC1 | BMSC (primary human bone marrow mesenchymal stromal cells) | > 2.5 µM |
| CC(=O)c1c(C)c2cnc(Nc3ccc(N4CCNCC4)cn3)nc2n(C2CCCC2)c1=O | BMSC (primary human bone marrow mesenchymal stromal cells) | > 10 µM |
| Cc1sc2c(c1C)C(c1ccc(Cl)cc1)=N[C@@H](CC(=O)OC(C)(C)C)c1nnc(C)n1-2 | BMSC (primary human bone marrow mesenchymal stromal cells) | > 10 µM |
| CCN1CCN(c2ccc(Nc3cc(N(C)C(=O)Nc4c(Cl)c(OC)cc(OC)c4Cl)ncn3)cc2)CC1 | BMSC (primary human bone marrow mesenchymal stromal cells) | > 1 µM |
| CCCOc1ccn2c(C(C)=O)cc(-c3ccccc3S(C)(=O)=O)c2c1 | BMSC (primary human bone marrow mesenchymal stromal cells) | > 10 µM |
| COC(=O)c1ccc([C@H]2c3[nH]c4ccccc4c3C[C@H](C(=O)OC)N2C(=O)CCl)cc1 | BMSC (primary human bone marrow mesenchymal stromal cells) | > 10 µM |
| CC[C@@H]1CN(C(=O)NCC(F)(F)F)C[C@@H]1c1cnc2cnc3[nH]ccc3n12 | BMSC (primary human bone marrow mesenchymal stromal cells) | > 10 µM |
| N#CCNC(=O)c1ccc(-c2ccnc(Nc3ccc(N4CCOCC4)cc3)n2)cc1 | BMSC (primary human bone marrow mesenchymal stromal cells) | > 10 µM |
| C[C@]12C=CC(=O)C=C1CC[C@@H]1[C@@H]2[C@@H](O)C[C@@]2(C)[C@H]1CC[C@]2(O)C(=O)CO | BMSC (primary human bone marrow mesenchymal stromal cells) | > 10 µM |
